These data points were gathered from patent US11524938B2.

Target: human P2X4 (Homo sapiens)
Sequence (Q99571 whole entry): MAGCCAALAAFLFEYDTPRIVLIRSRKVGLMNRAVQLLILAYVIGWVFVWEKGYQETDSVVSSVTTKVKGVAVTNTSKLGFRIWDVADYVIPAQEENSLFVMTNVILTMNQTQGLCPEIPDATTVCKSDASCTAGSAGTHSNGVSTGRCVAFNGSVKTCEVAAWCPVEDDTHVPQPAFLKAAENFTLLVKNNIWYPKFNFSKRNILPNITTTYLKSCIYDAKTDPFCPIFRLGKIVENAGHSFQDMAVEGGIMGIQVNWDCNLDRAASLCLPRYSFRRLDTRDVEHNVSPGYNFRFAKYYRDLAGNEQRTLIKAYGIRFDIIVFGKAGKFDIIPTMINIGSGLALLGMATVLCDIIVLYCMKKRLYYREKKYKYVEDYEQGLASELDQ
Experiment: Human P2X4 HEK Cell FLIPR Assay
Assay type: cell-based
Conditions: HEK293, HEK293 cells, agonist Bz-ATP at EC80; percentage of maximal inhibition; read-out: Human P2X4 HEK Cells (FLIPR Assay) avg Efficacy [%]
Experimental: HEK293 cells stably expressing human P2X4 were plated in poly-D-lysine-coated 384-well plates at a seeding density of 30000 cells/well and incubated overnight. P2X4 function was assessed by measuring intracellular calcium changes using the calcium-chelating dye Fluo8-AM (Molecular Devices) on a fluorescent imaging plate reader (FLEX/FLIPR station; Molecular Devices). […] The EC80 value of Bz-ATP was determined each assay day prior to compound profiling. […]
PROPERTY_NAME: Emax (%)

Example compounds with recorded Emax:
- SUBSTANCE_SMILES: "CSc1cnn(-c2ccc(NC(=O)Cc3ccccc3Cl)cc2S(N)(=O)=O)c1"
  PROPERTY_NAME: "Emax"
  UNIT_TEXT: "%"
  VALUE_OBSERVED: 87
- SUBSTANCE_SMILES: "NS(=O)(=O)c1cc(NC(=O)Cc2ccccc2Cl)ccc1-n1cc(C(=O)N2CCCC2)cn1"
  PROPERTY_NAME: "Emax"
  UNIT_TEXT: "%"
  VALUE_OBSERVED: 89
- SUBSTANCE_SMILES: "NS(=O)(=O)c1cc(NC(=O)Cc2ccc(C(F)F)cc2)ccc1-n1cnc(C(F)(F)F)n1"
  PROPERTY_NAME: "Emax"
  UNIT_TEXT: "%"
  VALUE_OBSERVED: 80
- SUBSTANCE_SMILES: "N#Cc1cnn(-c2ccc(NC(=O)Cc3ccccc3O)cc2S(N)(=O)=O)c1"
  PROPERTY_NAME: "Emax"
  UNIT_TEXT: "%"
  VALUE_OBSERVED: 84
- SUBSTANCE_SMILES: "NS(=O)(=O)c1cc(NC(=O)Cc2cc(F)ccc2Cl)ccc1-n1cc(C(F)(F)F)cn1"
  PROPERTY_NAME: "Emax"
  UNIT_TEXT: "%"
  VALUE_OBSERVED: 100

(a) NS(=O)(=O)c1cc(NC(=O)Cc2ccccc2Cl)ccc1-c1cnn(C2CCCC2)c1
(b) NS(=O)(=O)c1cc(NC(=O)Cc2cccc(Cl)c2)ccc1-n1cc(Cl)cn1
[in] For this pair, a and b , which shows a numerically higher Emax? // return label of chosen record
[out] a
(a: 100%, b: 36%)

---

Target: human P2X4 (Homo sapiens)
Assay: Human P2X4 HEK Cell FLIPR Assay
Conditions: HEK293 cells, agonist Bz-ATP at EC80; individual values listed where some fall outside detection range
PROPERTY_NAME: IC50 (nM)

Example compounds with recorded IC50:
- COMPOUND: "NS(=O)(=O)c1cc(NC(=O)Cc2ccccc2Cl)ccc1-n1nc(C(F)F)cc1C1CC1 [Example 13]"
  IC50 [nM]: 514
- COMPOUND: "Cc1nnc(-c2ccc(NC(=O)Cc3ccccc3Cl)cc2S(N)(=O)=O)o1 [Example 524]"
  IC50 [nM]: 322

(I) NS(=O)(=O)c1cc(NC(=O)Cc2c(Cl)cccc2Cl)ccc1-n1cc(Cl)cn1 [Example 80]
(II) NS(=O)(=O)c1cc(NC(=O)Cc2ccc(C(F)(F)F)cc2)ccc1-c1cncc(C(F)(F)F)c1 [Example 446]
[in] For this pair, I and II , which shows a numerically higher IC50? // return label of chosen record
[out] II
